Data origin: the supplement of paper PMC10567573

B1: SNAP91 (parent)
chain: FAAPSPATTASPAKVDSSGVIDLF

# Variants of: B1
# test_name: protein stability index of a GFP-peptide fusion (GPS, HEK-293T) (PSI 1-6); higher = more stable;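 note: lentivirally expressed fusions sorted by FACS into six bins by GFP to DsRed ratio, PSI derived from sequencing read proportions per bin multiplied by bin number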
# experimental_conditions: c terminus: a fixed tail appended
readout_kind: protein stability index
No unit in the answer, please; the number alone is enough.

Below: 5 variants and their reported protein stability index.
| variant_description | protein stability index |
| --- | --- |
| S11C | 2.14 |
| G19K | 2.38 |
| I21K | 3.79 |
| V15K | 2.92 |
| A13W | 2.12 |

## Task Value lookup for protein stability index; key = K14H
## Result 2.46

## Task // same read-out, input: A2T
## Result 3.36
